biological target: Bem1-2, P29366; experiment: SPOT array; settings: median of control spots 4347
Sequence (P29366 139-227): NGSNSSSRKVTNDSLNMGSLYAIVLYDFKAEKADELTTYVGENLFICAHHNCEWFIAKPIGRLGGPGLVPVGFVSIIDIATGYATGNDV
OBSERVABLE: SPOT intensity

BINDER | SPOT intensity
PSRRAPLQLPQLVNK | 0
AATTSTPPLPRRRAT | 0

1. PPIPIVPSSPAPPLP
2. QRKSLRRPTLSKPAV
// pick larger SPOT intensity from pair: 1 vs 2 Field: selected label. Fill in the label of the entry you choose. 2

Sourced from paper PMC2756588
